Biological target: T1, IL-11 (Cat. 12225-HNCE, Sino Biological Inc.) (UniProt P20809 22-199, limits assumed)
T1 sequence (looked up): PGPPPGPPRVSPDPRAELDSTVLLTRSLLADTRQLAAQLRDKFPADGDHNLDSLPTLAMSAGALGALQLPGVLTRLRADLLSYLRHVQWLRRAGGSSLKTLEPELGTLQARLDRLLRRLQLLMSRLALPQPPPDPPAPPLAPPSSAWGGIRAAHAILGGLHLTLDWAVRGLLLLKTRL
Assay: cell-based or functional assay
quantity: Blocking activity (IC50), STAT3-luc reporter (µg/mL)
Write it as a number; the unit µg/mL goes unstated.

Recorded result, hz18A10-VH + hz18A10-VLm8 (antibody, V domains shown, Constant regions not restated for this antibody) VH: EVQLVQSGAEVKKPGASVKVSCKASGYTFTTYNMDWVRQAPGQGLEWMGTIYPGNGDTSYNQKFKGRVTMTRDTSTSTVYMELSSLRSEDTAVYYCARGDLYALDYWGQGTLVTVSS VL: DIQMTQSPSSLSASVGDRVTITCKASQSVYHDVAWYQQKPGKAPKLLIYSASNRYTGVPSRFSGSGSGTDFTFTISSLQPEDIATYYCQHDYSSPYTFGQGTKLEIK , Blocking activity (IC50), STAT3-luc reporter: 3.12

Recorded result, hz8C8-VHm1-m4 + hz8C8-VLm7-m2 (antibody, human IgG1, kappa, V domains shown, human IgG1 constant regions) VH: EVQLVESGGGLVQPGGSLRLSCAASGFTFSSFGMHWVRQAPGKGLEWVSYITPGSNTIYYADTVKGRFTISRDNAKNSLYLQMNSLRAEDTAVYYCAREYYSYDEGFAYWGQGTLVTVSS VL: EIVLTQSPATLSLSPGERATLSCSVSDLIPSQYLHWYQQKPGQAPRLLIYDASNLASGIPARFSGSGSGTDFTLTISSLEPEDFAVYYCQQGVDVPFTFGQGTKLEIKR , Blocking activity (IC50), STAT3-luc reporter: 0.004
